Target: mGluR2 receptor (metabotropic glutamate receptor 2) (Homo sapiens, UniProt Q14416)
Construct: expressed in transfected cells
Sequence (Q14416 19-872, species assumed): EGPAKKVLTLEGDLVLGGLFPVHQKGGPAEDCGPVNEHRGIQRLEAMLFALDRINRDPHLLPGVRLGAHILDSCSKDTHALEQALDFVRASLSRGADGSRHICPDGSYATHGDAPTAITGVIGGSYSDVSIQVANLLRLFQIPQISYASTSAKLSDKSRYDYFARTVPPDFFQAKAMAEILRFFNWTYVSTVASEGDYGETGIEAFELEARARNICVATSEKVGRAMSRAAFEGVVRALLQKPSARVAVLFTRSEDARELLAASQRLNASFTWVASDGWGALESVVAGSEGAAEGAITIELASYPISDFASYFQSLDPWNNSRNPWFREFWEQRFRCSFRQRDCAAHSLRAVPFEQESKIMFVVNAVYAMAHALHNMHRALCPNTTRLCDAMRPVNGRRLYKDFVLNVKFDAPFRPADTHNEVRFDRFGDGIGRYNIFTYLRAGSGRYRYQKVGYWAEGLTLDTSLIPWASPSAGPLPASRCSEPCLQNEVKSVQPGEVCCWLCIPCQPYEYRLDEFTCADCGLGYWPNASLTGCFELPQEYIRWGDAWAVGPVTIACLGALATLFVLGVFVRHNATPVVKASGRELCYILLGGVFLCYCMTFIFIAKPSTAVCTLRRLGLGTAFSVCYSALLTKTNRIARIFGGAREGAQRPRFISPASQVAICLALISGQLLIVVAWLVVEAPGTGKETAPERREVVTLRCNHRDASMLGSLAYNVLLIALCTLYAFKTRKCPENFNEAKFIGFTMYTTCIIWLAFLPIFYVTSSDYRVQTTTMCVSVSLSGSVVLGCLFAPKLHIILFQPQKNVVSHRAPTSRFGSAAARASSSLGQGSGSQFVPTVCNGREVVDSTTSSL
Assay: mGluR2 Potentiator Screen, FLIPR, EC10-EC20 glutamate challenge
Format: cell-based
Measurement name: pEC50
Scale note: pEC50 = -log10(concentration in M).

| Compound | pEC50 |
| --- | --- |
| CCOc1ccc(C2CCN(Cc3nc4ncccc4n3C)CC2)cc1 | 5.64 |

// below: pEC50 requested for another compound
Record request: pEC50 value, item C[C@@H]1CN(Cc2nc3cnccc3n2C)CC[C@@H]1c1ccc(OC(F)(F)F)c(Cl)c1 (relative stereo)
6.68

###

Target: mGluR2 receptor (metabotropic glutamate receptor 2) (Homo sapiens, UniProt Q14416)
Construct: expressed in transfected cells
Experiment: mGluR2 Potentiator Screen, FLIPR, EC10-EC20 glutamate challenge
Type: cell-based
Conditions: mGluR2 potentiator screen, FLIPR, EC10-EC20 glutamate challenge
Measurement name: EC50 (nM)
Quick reminder: number only, in nM, skip the unit.

Example results:
| Molecule | Unit | EC50 |
| --- | --- | --- |
| C[C@@H]1CN(Cc2nc3ncccc3n2C)CC[C@@H]1c1ccc(OC(F)(F)F)cc1Cl (single isomer, unassigned) [compound 255] | nM | 76.9 |
| Cc1cc(OC(F)(F)F)ccc1C1CCN(Cc2nc3cnccc3n2C)CC1 [compound 240] | nM | 96.8 |
| C[C@@H]1CN(Cc2nc3ncccc3n2C)CC[C@@H]1c1ccc(F)c(F)c1F (relative stereo) [compound 249] | nM | 113 |
| CC(C)Oc1ccc(C2CCN(Cc3nc4ncccc4n3C)CC2)c(F)c1 [compound 262] | nM | 127 |
| C[C@@H]1CN(Cc2nc3cnccc3n2C)CC[C@@H]1c1ccc(F)cc1C(F)(F)F (relative stereo) [compound 258] | nM | 125 |

For the molecule shown here, Cn1c(CN2CCC(c3ccc(C(F)(F)F)cc3F)CC2)nc2ncccc21 [compound 268] , give the reported EC50.
12.7

Quick one: EC50 of C[C@@H]1CN(Cc2nc3ncccc3n2C)CC[C@@H]1c1ccc(F)cc1OC(F)F (relative stereo) [compound 274] ?
75.5

Any idea what EC50 was measured for CC(C)Oc1ccc(C2CCN(Cc3nc4cnccc4n3C)CC2)c(Cl)c1 [compound 267] ?
85.5

Can you share its EC50? I mean this molecule: C[C@@H]1CN(Cc2nc3cnccc3n2C)CC[C@@H]1c1ccc(C(F)(F)F)c(Cl)c1 (relative stereo) [compound 235]
135

GET /values?readout=EC50&item= Cc1cc(C2CCN(Cc3nc4cnccc4n3C)CC2)ccc1C(F)(F)F [compound 276]
88.5

###

Target: mGluR2 receptor (metabotropic glutamate receptor 2) (Homo sapiens)
Construct: expressed in transfected cells
Assay: mGluR2 Potentiator Screen, FLIPR, EC10-EC20 glutamate challenge
Type: cell-based
Attribute: EC50
// return numeric value only (unit: nM, not printed)

Examples from the recorded data:
| Compound | Target or system | Unit | EC50 |
| --- | --- | --- | --- |
| Cc1cc(OC(F)(F)F)ccc1[C@H]1CCN(Cc2nc3cnccc3n2C)C[C@H]1C (relative stereo) [compound 165] | mGluR2 receptor (metabotropic glutamate receptor 2) (Homo sapiens) | nM | 514 |
| CC(C)Oc1ccc([C@H]2CCN(Cc3nc4cnccc4n3C)C[C@H]2C)cc1Cl (relative stereo) [compound 193] | mGluR2 receptor (metabotropic glutamate receptor 2) (Homo sapiens) | nM | 590 |

Please examine the following record next.
Requested read-out: EC50. Entry: COc1cc(F)ccc1[C@H]1CCN(Cc2nc3nccc4c3n2CCC4)C[C@H]1C (relative stereo) [Example 134]
30.2
